Molecular target: T1, hRET.mmh (human, UniProt P07949 29-635, biotinylated in the ELISA of Example 4 (biot-hRET.mmh); not in the SPR of Example 3)
T1 construct: also called biot-hRET.mmh; soluble monomeric human RET
Experiment: SPR Biacore T200, mAb capture, 37 C
Listing: t½ of selected binders
State just the number; it will be interpreted in min.

>  <binder>
H4H8045P (antibody, human IgG4, V domains shown, human IgG4 Fc (H4H prefix)) VH: EVQLVESGGALVQPGGSLRLSCAASGFTFSNYAMTWVRQAPGMGLEWVSGISSSGASTFYADSVKGRFTISRDNSKNTLYLQMNSLRAEDTAVYYCAKEDYWGWFDYWGQGTLVTVSS VL: DIQLTQSPSFLSASVGDRVTITCWASQDVSSYLAWYQQEPGKAPKVLIYDASTLQSGVPSRFSGSGSGTEFTLTISSLQPEDFAPYYCQQLNSYPYTFGQGTKLEIK

>  <unit descriptor>
min

>  <t½>
9

$$$$

// query t½ value for entry H4H8058P (antibody, human IgG4, V domains shown, human IgG4 Fc (H4H prefix)) VH: QVQLVESGGGVGQPGRSLRLSCVASGFTFRNYGMHWVRQAPGKGLDWVAIIGYDGSKEYNVDSVKGRFTISRDNSKNTLYLQMNSLGAEDTAIYYCARESPITGTTFDYWGQGTLVTVSS VL: DIQMTQSPPSLSASVGDRVTITCRASQSIGNYLNWYQQKPGKAPKILIYAASRLQSGVPSRFSGSGSGTDFTLTISSLQPEDFATYYCQQSYSTPLTFGGGTKVEIK 5

// query t½ value for entry H4H8085P (antibody, human IgG4, V domains shown, human IgG4 Fc (H4H prefix)) VH: QVQLVESGGGVVQPGRSLRLSCTASGFTFDNYGMHWVRQAPGKGLEWVAVISYDGSNTFYADSVKGRFTISRDNSKNALYLQMNSLRAEDTAVYYCAKDLEFDILIGYPFDSWGRGTLVTVSS VL: DIQLTQSPSFLSASVGDRVTITCWASQDISRYLAWYQQKPGKAPNLLIYAASTLQSGVPSRFSGSGSGTEFTLTINSLQPEDFATYYCQQLFSYPRTFGQGTKVEIK 13

// query t½ value for entry H4H8062P (antibody, human IgG4, V domains shown, human IgG4 Fc (H4H prefix)) VH: EVQLVESGGGLVQPGGSLRLSCSVSGFIFKNYAMRWVRQAPGKGLEWVSGISGSGGITYYADSVRGRVTISRDNSKNTLDLQMTNLRAEDTAVYYCAKAEYSSSGAYFDYWGQGTLVTVSS VL: DIQMTQSPSSLSASVGDRVTITCRASQSIHNYLNWYLQRPGKAPKLLVYAASSLQSGVPSRFSGRGSGTDFTLTISSLQPEDFATYYCQQSYSAPYSFGQGTKLEIK 6

// query t½ value for entry H4H8080P (antibody, human IgG4, V domains shown, human IgG4 Fc (H4H prefix)) VH: EVQLVESGGGLVQSGGSLRLSCVASGFTFSTYAMTWVRQAPGRGLEWVSAISGSGASTYYADSLKGRFTVSRDNSKNTLYLQMNSLRAEDTAVYYCSKDHRNYDSDYDMDVWGQGTTVTVSS VL: DIQMTQSPSSLSASVGDRVTITCRASQGIRNYLGWYQQKPGKAPKRLIYTASSLQSGVPSRFRGSGSGTEFTLTISSLQPEDFATYYCLQHNSYPYTFGQGTKLEIK 4
